Record form. Attribute: Bin by Octet. Fill in for each entry.
# ASSAY_SYSTEM: T1, hTREM2 (Homo sapiens, UniProt Q9NZC2)
# T1 construct: The ecto domain (residues 19-172) of TREM2 (UniProtKB—Q9NZC2); secretion signal of mouse Ig kappa chain V-III (P01661 aa 1-20) (N); made in house; host or cells: Expi293F
# T1 sequence (Q9NZC2 19-172): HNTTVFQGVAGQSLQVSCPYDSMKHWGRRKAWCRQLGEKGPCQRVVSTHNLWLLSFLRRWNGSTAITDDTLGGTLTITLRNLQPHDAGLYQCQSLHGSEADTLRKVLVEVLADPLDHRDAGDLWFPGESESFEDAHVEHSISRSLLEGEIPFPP
# METHOD_DESCRIPTION: Octet binning (competition with R&D antibody on biotinylated TREM2-His)
# Assay type: binding
# ASSAY_SETUP: epitope bin, 100 nM
Numbers only.

[
  {
    "MOLECULE": "49H11.B1: anti-TREM2 antibody clone; VH SEQ ID NO:21, VL SEQ ID NO:32 (antibody, V domains shown) VH: DVQLQESGPGLVKPSQSLSLTCTVTGYSITSDYAWNWIRQFPGNRLEWMGYISFSGSTSYNPSLKSRISITRDTSKNQFFLQLNSVTTEDTATYYCARWNGNYGFAYWGQGTLVTVSA VL: DVVMTQTPLSLPVSLGDQASISCRSSQSLVHINGNTYLHWYLQKPGQSPKLLIYKVSNRFSGVPDRFSGSGSGTDFTLKISRVEAEDLGVYFCSQSTHVTFTFGSGTKLEIK",
    "ASSAY_VALUE": 1
  }
]

Turning now to a further record.
Q: Could you tell me which Bin by Octet is on file for 54C2.A1: anti-TREM2 antibody clone; VH SEQ ID NO:22, VL SEQ ID NO:33 (antibody, V domains shown) VH: QVHLQQSGSELRSPGSSVKLSCKDFDSEVFPIAYMSWVRQKPGHGFEWIGDILPSIGRRIYGVKFEDKATLDADTVSNTAYLELNSLTSEDSAIYYCTRKDYGSLAYWGQGTLVTVSA VL: DVVMTQTPLSLPVSLGDQASISCRSSQSLVHINGNTYLQWYLQKPGQSPKLLIYKVSNRFSGVPDRFSGSGSGTDFTLRISRVEAEDLGVYFCSQSTHLPYTFGGGTKLEIK ?
Result: 1
